B1: INTS3 (parent)
chain: KKREFRFHPIKETVVEEPVDITPY

Variants of: B1
Experiment: protein stability index of a GFP-peptide fusion (GPS, HEK-293T) (PSI 1-6); higher = more stable;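 further: lentivirally expressed fusions sorted by FACS into six bins by GFP to DsRed ratio, PSI derived from sequencing read proportions per bin multiplied by bin number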
Details: c terminus: a fixed tail appended
ENDPOINT: protein stability index
The reply should be a number, written without any unit.

The examples below pair each entry with its known result.
{"MUTATIONS": "P9R", "protein stability index": 2.3}
{"MUTATIONS": "I10D", "protein stability index": 2.28}
{"MUTATIONS": "E17Q", "protein stability index": 2.42}
{"MUTATIONS": "I21Q", "protein stability index": 2.43}
{"MUTATIONS": "T13K", "protein stability index": 1.96}
{"MUTATIONS": "R3E", "protein stability index": 2.74}

stdin: What does the record list as protein stability index for `T22C` ?
stdout: 1.82

stdin: Give the measured protein stability index of `Y24G` .
stdout: 2.44

stdin: Find the recorded protein stability index belonging to `E12R` and report it.
stdout: 1.94

stdin: What does the data say about its protein stability index? Entry: `P23L`
stdout: 1.84

stdin: I am curious: what protein stability index value has been reported for `T22N` ?
stdout: 1.72

stdin: Quick check: protein stability index of `E17A` ?
stdout: 1.79

stdin: For the variant shown here, `V19A` , give the reported protein stability index.
stdout: 2.67

stdin: Look up protein stability index: `F7K`
stdout: 4.39

stdin: Returns the measured protein stability index for the input variant. Input: `R6M`
stdout: 4.02

stdin: Name the recorded protein stability index for `R3W` .
stdout: 1.44
